These entries and their values trace back to patent US12522597B2.

tested on: mHTT protein; assay: mHTT protein assay (2B7-MW1, Mesoscale Discovery); assay type: cell-based, human; conditions: GM04724 (CAG 70/20) Huntington's disease patient lymphoblast cells, 48 hours, 2B7-MW1 MSD; read-out: HTT Potency - Protein EC50 mHTT (average)
pEC50: −log10 of the molar value.
# pEC50 listing for each entry below

Oc1cc2ncccc2cc1-c1ccc(O[C@H]2C[C@@H]3CCC[C@@H](N3)[C@H]2F)nn1 (single isomer, unassigned) [103-ENT2] | 5.00 to 6.30
CN(C)C(=O)c1cc2cc(O)c(-c3ccc(O[C@@H]4C[C@@]5(C)CCC[C@](C)(N5)[C@@H]4F)nn3)cc2o1 (single isomer, unassigned) [155-ENT1] | 5.00 to 6.30
Cn1ccc(-c2ccc(-c3ccc(O[C@H]4C[C@]5(C)CCC[C@@](C)(N5)[C@H]4F)nn3)c(O)c2)cc1=O (single isomer, unassigned) [149-ENT1] | 7.30 to 7.80
O=c1cc(-c2cc(O)c(-c3ccc(O[C@@H]4C[C@H]5CCC[C@H](N5)[C@@H]4F)nn3)cc2F)cc[nH]1 (single isomer, unassigned) [57-ENT1] | 6.30 to 7.00

Continue with the molecule presented below.
I have this molecule here, Cc1ncc(-c2ccc(-c3ccc(O[C@@H]4C[C@H]5CCC[C@H](N5)[C@@H]4F)nn3)c(O)c2)o1 (single isomer, unassigned) [93-ENT1] , and I need its recorded pEC50.
7.30 to 7.80
